B1: glmS ribozyme (parent)
chain: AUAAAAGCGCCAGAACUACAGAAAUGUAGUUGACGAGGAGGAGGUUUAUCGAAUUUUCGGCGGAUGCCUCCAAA

Variants of: B1
Assay: self-cleavage kobs at 2500 uM GlcN6P; higher = faster cleavage; RNA array
Conditions: with glucosamine-6-phosphate
This sample holds only a part of the variants without activity.
PROPERTY LABEL: self-cleavage kobs at 2500 uM GlcN6P (s⁻¹)
Answer format: numeric, s⁻¹ implied, no suffix.

Measured self-cleavage kobs at 2500 uM GlcN6P of AUAAAAGCGCCAGAACUACAGAAAUGUAGUUGACGAGGAGGAGGGUUAUCGAAUUUUCGGCGGAUGCCUCUAAA [U45G C71U] : 0.00519
